Measured cell count of individual entries
Test: viability loss with induced miR-34 in A549 – imaging, A549 dox-inducible miR-34, nuclei and caspase counts, primary screen (AID 1347080)
Settings: A549 miR-34 inducible, Hoechst nuclei count, 48 h; measured here: total cells with miR-34 induction; stronger effect = lower value

>  <COMPOUND>
CCC(C)(C)c1ccc(CC(C)CN2CC(C)OC(C)C2)cc1 (stereo not given)

>  <cell count>
8210

$$$$
>  <COMPOUND>
CC(C)Oc1ccc(-c2cnc3c(-c4ccnc5ccccc45)cnn3c2)cc1

>  <cell count>
5470

$$$$
>  <COMPOUND>
CN1CCC(CN(C)Cc2ccc(-c3nc(-c4cccnc4)cc(=O)[nH]3)cc2)CC1

>  <cell count>
8360

$$$$
>  <COMPOUND>
CC(C)C(=O)N1CCC(CNC(=O)c2ccno2)CC1

>  <cell count>
9650

$$$$
>  <COMPOUND>
CC1CC(C(=O)O)C2CC[C@]3(C)C(=CC[C@H]4[C@@]5(C)CCC(O)C(C)(C)[C@@H]5CC[C@]43C)[C@H]2C1C (stereo not given in full)

>  <cell count>
8220

$$$$
>  <COMPOUND>
NC(=O)c1ncn(C2OC(CO)C(O)C2O)c1N (stereo not given)

>  <cell count>
7500

$$$$
>  <COMPOUND>
Fc1ccc(C(OCCCc2cnc[nH]2)c2ccc(F)cc2)cc1

>  <cell count>
8620

$$$$
>  <COMPOUND>
NC1CCCN(c2c(C=C3SC(=O)NC3=O)cccc2-c2ccccc2)C1 (stereo not given)

>  <cell count>
8290

$$$$
>  <COMPOUND>
CCC(NC(=O)C(C)NC)C(=O)N1CC(O)CC1Cc1c(-c2[nH]c3cc(F)ccc3c2CC2CC(O)CN2C(=O)C(CC)NC(=O)C(C)NC)[nH]c2cc(F)ccc12 (stereo not given)

>  <cell count>
9020

$$$$
>  <COMPOUND>
C=C1c2cccc(O)c2C(O)=C2C(=O)[C@]3(O)C(O)=C(C(N)=O)C(=O)C(N(C)C)[C@@H]3C(O)[C@H]12 (stereo not given in full)

>  <cell count>
7630

$$$$
>  <COMPOUND>
Cc1nsc(NC(=O)NC2Cc3ccccc3C2)n1

>  <cell count>
7330

$$$$
>  <COMPOUND>
O=C(C=Cc1ccccc1)NC(NC(=S)Nc1cccc2cccnc12)C(Cl)(Cl)Cl (stereo not given)

>  <cell count>
6780

$$$$
>  <COMPOUND>
Nc1ncnc2c1nc(Sc1ccc(Cl)cc1)n2C1OC2COP(=O)(O)O[C@@H]2[C@@H]1O (stereo not given in full)

>  <cell count>
10500

$$$$
>  <COMPOUND>
COC(=O)C(C)(N)Cc1ccc(O)cc1 (stereo not given)

>  <cell count>
10900

$$$$
>  <COMPOUND>
O=C1C=CC(=O)c2c1ccc1c2ccc2ccccc21

>  <cell count>
7950

$$$$
>  <COMPOUND>
c1ccc(NCc2cccnc2)cc1

>  <cell count>
8370

$$$$
>  <COMPOUND>
O=C(O)c1ccc(-c2ccc([N+](=O)[O-])cc2Cl)o1

>  <cell count>
8260

$$$$
>  <COMPOUND>
COc1ccc(CNCc2cccc3ccccc23)cc1

>  <cell count>
8220

$$$$
>  <COMPOUND>
CN(C)C(=O)CN(C)C(=O)c1cccc(Nc2ncnc3c2cnn3C)c1

>  <cell count>
8650

$$$$
>  <COMPOUND>
COc1ccc(CCC(=O)O)cc1OC

>  <cell count>
8510

$$$$
>  <COMPOUND>
CCc1c(Cl)c(O)c(Cl)c(O)c1C(=O)OC1C(C)OC(OCC2=CC=CCC(O)C(C)=CC(CC)C(O[C@@H]3OC(C)(C)C(OC(=O)C(C)C)C(O)C3O)C(C)=CC(C)=CC[C@H](C(C)O)OC2=O)C(OC)C1O (stereo not given in full)

>  <cell count>
6980

$$$$
>  <COMPOUND>
CC(N)(C(=O)O)c1ccc(C(=O)O)cc1 (stereo not given)

>  <cell count>
11100

$$$$
>  <COMPOUND>
CCOC(=O)[C@H](CCc1ccccc1)N[C@@H](C)C(=O)N1[C@H](C(=O)O)C[C@H]2CCCC[C@@H]21

>  <cell count>
11100

$$$$
>  <COMPOUND>
CCC1OC(=O)CC(O)C(C)C(O[C@H]2OC(C)C(O[C@H]3C[C@@](C)(O)C(O)C(C)O3)C(N(C)C)C2O)C(CC=O)CC(C)C(=O)C=CC(C)=CC1COC1OC(C)C(O)C(OC)C1OC (stereo not given in full)

>  <cell count>
8760

$$$$
>  <COMPOUND>
COc1cc(C(C)=O)ccc1O

>  <cell count>
7660

$$$$
>  <COMPOUND>
O=C(NCC(O)CO)c1ccncc1Nc1ccc(I)cc1F (stereo not given)

>  <cell count>
3270

$$$$
>  <COMPOUND>
Cc1cc2nc3[nH]c(=O)[nH]c(=O)c3nc2cc1C

>  <cell count>
7820

$$$$
>  <COMPOUND>
CC(C)(C)C(=O)Nc1ccc2c(c1)C(=O)C(=O)c1ccccc1-2

>  <cell count>
833

$$$$
>  <COMPOUND>
Brc1c(Br)c(Br)c2[nH]cnc2c1Br

>  <cell count>
3750

$$$$
>  <COMPOUND>
CC1(C)CCC[C@@]2(C)[C@H]3CC(=O)O[C@]3(C)CC[C@@H]12

>  <cell count>
9360

$$$$
>  <COMPOUND>
CCNC(=O)Nc1ccc(-c2nc3c(c(N4CCOCC4C)n2)CCN(C2COC2)C3)cc1 (stereo not given)

>  <cell count>
2790

$$$$
>  <COMPOUND>
Cc1cn(C2OC(CO)C(O)C2F)c(=O)[nH]c1=O (stereo not given)

>  <cell count>
9750

$$$$
>  <COMPOUND>
O=C(C=Cn1cnc(-c2cc(C(F)(F)F)cc(C(F)(F)F)c2)n1)NNc1cnccn1

>  <cell count>
2320

$$$$
>  <COMPOUND>
Cc1cc(-c2cccc3cccnc23)nc(N)n1

>  <cell count>
9030

$$$$
>  <COMPOUND>
CC1C[C@H]2[C@@H]3CCC4=CC(=O)C=C[C@]4(C)[C@@H]3C(=O)C[C@]2(C)[C@]1(O)C(=O)CO (stereo not given in full)

>  <cell count>
7500

$$$$

###

Test: drug combination growth inhibition, ovarian cancer – cell-based, oncology-focused library, rucaparib conditional, profiling panel (AID 1508598)
Details: patient-derived ovarian cancer cells, CellTiter-Glo viability, 144 h; at 0.313 µM; OCI-P5x cells; without rucaparib
Activity calls are given as the source filed them.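 The calls were made as follows: active = normalized viability below 100% at a tested concentration; inactive = the rest.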 *1 amine or outer side, *2 acyl side, *3 side chain or, on linkers, in order; H or OH if unused. Where a SMILES comes first, the peptide text is derived from it. Bridges are numbered along the chain shown (N, C = ends). Roman numbers before positions name the chains, in order. [ ]: non-standard residue; d: D form. Hexamethylenediamine = C(CCCN[*:2])CCN[*:1]; Dip = N[C@H](C(=O)O)C(c1ccccc1)c1ccccc1; Chg = N[C@H](C(=O)O)C1CCCCC1; NMeA = CN[C@@H](C)C(=O)O
Labels: active, inactive

>  <COMPOUND>
CC#C[C@@]1(O)CC[C@H]2[C@@H]3CCC4=CC(=O)CCC4=C3[C@H](c3ccc(N(C)C)cc3)C[C@@]21C

>  <ANSWER_LABEL>
active

$$$$
>  <COMPOUND>
COc1cccc2c1C(=O)c1c(O)c3c(c(O)c1C2=O)C[C@@](O)(C(=O)CO)C[C@H]3O[C@H]1C[C@H](N)[C@H](O)[C@H](C)O1

>  <ANSWER_LABEL>
active

$$$$
>  <COMPOUND>
C[C@]12CC[C@H]3c4ccc(O)cc4CC[C@H]3[C@@H]1CCC2=O

>  <ANSWER_LABEL>
active

$$$$
>  <COMPOUND>
CC1(C)O[C@@H]2C[C@H]3[C@@H]4CCC5=CC(=O)C=C[C@]5(C)[C@]4(F)[C@H](O)C[C@]3(C)[C@@]2(C(=O)CO)O1

>  <ANSWER_LABEL>
inactive

$$$$
>  <COMPOUND>
CCCc1ccc(OCC(=O)N(Cc2nc(-c3cccnc3)no2)C(C)C)cc1

>  <ANSWER_LABEL>
inactive

$$$$
>  <COMPOUND>
CCCCCOC(=O)Nc1nc(=O)n([C@@H]2O[C@H](C)[C@@H](O)C2O)cc1F (stereo partly specified)

>  <ANSWER_LABEL>
inactive

$$$$
>  <COMPOUND>
CC1=C(/C=C/C(C)=C\C=C\C(C)=C/C(=O)O)C(C)(C)CCC1

>  <ANSWER_LABEL>
active

$$$$
>  <COMPOUND>
N[C@@H]1CCCN(c2c(/C=C3\SC(=O)NC3=O)cccc2-c2ccccc2)C1

>  <ANSWER_LABEL>
inactive

$$$$
>  <COMPOUND>
C[C@H](O[C@H]1OCCN(Cc2n[nH]c(=O)[nH]2)[C@H]1c1ccc(F)cc1)c1cc(C(F)(F)F)cc(C(F)(F)F)c1

>  <ANSWER_LABEL>
inactive

$$$$
>  <COMPOUND>
COc1ccc(C2=N[C@H](c3ccc(Cl)cc3)[C@@H](c3ccc(Cl)cc3)N2C(=O)N2CCNC(=O)C2)c(OC(C)C)c1

>  <ANSWER_LABEL>
active

$$$$
>  <COMPOUND>
CC(=O)OCC(=O)[C@]1(O)[C@H](C)C[C@H]2[C@@H]3CCC4=CC(=O)C=C[C@]4(C)[C@]3(F)[C@H](O)C[C@@]21C

>  <ANSWER_LABEL>
active

$$$$
>  <COMPOUND>
CC(=O)O[C@@]1(C(C)=O)CC[C@H]2[C@@H]3C[C@H](C)C4=CC(=O)CC[C@]4(C)[C@@H]3CC[C@@]21C

>  <ANSWER_LABEL>
inactive

$$$$
>  <COMPOUND>
COc1cccc(-c2cc(F)ccc2[C@H]2Cc3nc(N)nc(C)c3C(=O)N2)n1

>  <ANSWER_LABEL>
active

$$$$
>  <COMPOUND>
COc1cc(=C2C=c3ccccc3=N2)[nH]/c1=C\c1[nH]c(C)cc1C

>  <ANSWER_LABEL>
active

$$$$
>  <COMPOUND>
CN[C@@H](C)C(=O)N[C@H](C(=O)N1CCC[C@H]1C(=O)N[C@H](C(=O)NCCCCCCNC(=O)[C@@H](NC(=O)[C@@H]1CCCN1C(=O)[C@@H](NC(=O)[C@H](C)NC)C1CCCCC1)C(c1ccccc1)c1ccccc1)C(c1ccccc1)c1ccccc1)C1CCCCC1 (I: H-[NMeA][Chg]P[Dip] / II: H-[NMeA][Chg]P[Dip]; linker I:C-II:C via Hexamethylenediamine)

>  <ANSWER_LABEL>
active

$$$$
>  <COMPOUND>
CO[C@H]1/C=C\C=C(\C)C(=O)NC2=CC(=O)C(NCCN(C)C)=C(C[C@@H](C)C[C@H](OC)[C@H](O)[C@@H](C)/C=C(\C)[C@@H]1OC(N)=O)C2=O

>  <ANSWER_LABEL>
active

$$$$
>  <COMPOUND>
CC(=O)O[C@]12CO[C@@H]1C[C@H](O)[C@]1(C)C(=O)[C@H](O)C3=C(C)[C@H](OC(=O)[C@H](O)[C@@H](NC(=O)OC(C)(C)C)c4ccccc4)C[C@](O)([C@H](OC(=O)c4ccccc4)C21)C3(C)C (stereo partly specified)

>  <ANSWER_LABEL>
active

$$$$
>  <COMPOUND>
CC(=O)[C@]1(O)Cc2c(O)c3c(c(O)c2[C@H](O[C@H]2C[C@H](N)[C@H](O)[C@H](C)O2)C1)C(=O)c1ccccc1C3=O

>  <ANSWER_LABEL>
active

$$$$
>  <COMPOUND>
O=C1[C@H](CC[C@H](O)c2ccc(F)cc2)[C@H](c2ccc(O)cc2)N1c1ccc(F)cc1

>  <ANSWER_LABEL>
inactive

$$$$
>  <COMPOUND>
CO[C@H]1C[C@@H]2CC[C@@H](C)[C@@](O)(O2)C(=O)C(=O)N2CCCC[C@H]2C(=O)O[C@H]([C@H](C)C[C@@H]2CC[C@@H](O)[C@H](OC)C2)CC(=O)[C@H](C)/C=C(\C)[C@@H](O)[C@H](OC)C(=O)[C@H](C)C[C@H](C)/C=C/C=C/C=C/1C

>  <ANSWER_LABEL>
active

$$$$
>  <COMPOUND>
CO[C@H]1C[C@@H]2CC[C@@H](C)[C@@](O)(O2)C(=O)C(=O)N2CCCC[C@H]2C(=O)O[C@H]([C@@H](C)C[C@@H]2CC[C@@H](OCCO)[C@H](OC)C2)CC(=O)[C@H](C)/C=C(\C)[C@H](O)[C@@H](OC)C(=O)[C@H](C)C[C@H](C)/C=C/C=C/C=C/1C

>  <ANSWER_LABEL>
active

$$$$
